Reference for the values: patent US11286268B1

Catalogue of molecules with associated pIC50
biological target: recombinant eIF4E (Homo sapiens (Human), UniProt P06730); assay: Fluorescence polarization competition assay for eIF4E binding potency; settings: inhibition of eIF4E/EDA-m7GDP-ATTO-550 binding by 50%; Table 4B calculated values; read-out: IC50
Sequence (P06730 whole entry): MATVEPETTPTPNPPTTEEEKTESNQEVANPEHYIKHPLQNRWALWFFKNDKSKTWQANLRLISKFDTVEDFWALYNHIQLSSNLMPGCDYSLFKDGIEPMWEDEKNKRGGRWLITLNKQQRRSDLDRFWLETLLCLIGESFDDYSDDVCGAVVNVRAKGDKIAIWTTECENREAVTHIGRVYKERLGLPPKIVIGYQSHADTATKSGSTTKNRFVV
pIC50: −log10 of the molar value.
Recorded metric: pIC50

[[record]]
molecule = "Cc1nc2cc(CN(C)C)c(OC(F)F)c(C#N)c2c(=O)n1CCOc1ccc(Cl)cc1-c1ccnc2c(C(=O)O)csc12 [compound 458]"
recorded_metric = "pIC50"
value_reported = 7.43

[[record]]
molecule = "Cc1c(CCOc2ccc(Cl)cc2-c2ccnc3c(C(=O)O)csc23)c(=O)c2c(C#N)cc(C(F)(F)F)cc2n1CCF [compound 362]"
recorded_metric = "pIC50"
value_reported = 7.14

[[record]]
molecule = "COC(=O)c1csc2c(-c3cc(Cl)ccc3C#CCn3c(C)nc4cnc(N(C)C5CCN(CC(C)(F)F)CC5)c(C#N)c4c3=O)ccnc12 [compound 980]"
recorded_metric = "pIC50"
value_reported = 7.81

[[record]]
molecule = "O=C(O)c1cccc(-c2cc(Cl)ccc2OCCn2cnc3cc(F)ccc3c2=O)c1 [compound 3]"
recorded_metric = "pIC50"
value_reported = 5.33

[[record]]
molecule = "Cc1nc2ccc(CCN(C)C)c(C#N)c2c(=O)n1CCOc1ccc(Cl)cc1-c1cc(OC(F)F)nc2c(C(=O)O)csc12 [compound 575]"
recorded_metric = "pIC50"
value_reported = 7.59

[[record]]
molecule = "Cc1nc2cnc(N(C)C3CCN(CC(F)(F)C4CC4)CC3)c(C#N)c2c(=O)n1CC#Cc1ccc(Cl)cc1-c1ccnc2c(C(=O)O)csc12 [compound 1125]"
recorded_metric = "pIC50"
value_reported = 7.84

[[record]]
molecule = "Cc1nc2cc(OC(F)F)c(C#N)c(C#N)c2c(=O)n1CCOc1ccc(Cl)cc1-c1ccnc2c(C(=O)O)csc12 [compound 538]"
recorded_metric = "pIC50"
value_reported = 7.65

[[record]]
molecule = "COC1CN(c2c(C(F)(F)F)cc3nc(C)n(CCOc4ccc(Cl)cc4-c4cc(C)nc5c(C(=O)O)csc45)c(=O)c3c2C#N)C1 [compound 1009]"
recorded_metric = "pIC50"
value_reported = 8.21

[[record]]
molecule = "N#Cc1cc(C(F)(F)F)cc2ncn(CCOc3ccc(Cl)cc3-c3ccnc(C(=O)O)c3)c(=O)c12 [compound 162]"
recorded_metric = "pIC50"
value_reported = 7.54

[[record]]
molecule = "Cc1nc2cc(C(F)(F)CN(C)C)cc(C#N)c2c(=O)n1CCOc1ccc(Cl)cc1-c1ccnc2c(C(=O)O)csc12 [compound 514]"
recorded_metric = "pIC50"
value_reported = 7.40

[[record]]
molecule = "N#Cc1ncc(CCOc2ccc(Cl)cc2-c2cccc(C(=O)O)c2)c2c(=O)[nH]c(Nc3ccccc3)nc12 [compound 179]"
recorded_metric = "pIC50"
value_reported = 7.69

[[record]]
molecule = "Cc1cc(-c2cc(Cl)ccc2OCCn2c(C)cc3cnc(N4CCC4)c(C#N)c3c2=O)c2scc(C(=O)O)c2n1 [compound 1003]"
recorded_metric = "pIC50"
value_reported = 7.87

[[record]]
molecule = "O=C(O)c1cccc(-c2cc(Cl)ccc2OCCn2ccc3ccncc3c2=O)c1 [compound 6]"
recorded_metric = "pIC50"
value_reported = 5.13

[[record]]
molecule = "Cc1nc2cnc(C3CC3)c(C#N)c2c(=O)n1CCOc1ccc(Cl)cc1-n1cnc2c(C(=O)O)cccc21 [compound 756]"
recorded_metric = "pIC50"
value_reported = 7.36

